Sourced from patent US20160297884A1

// reported kon for each item listed
Molecular target: T1, Cynomolgus monkey BCMA (cynomolgus monkey)
T1 construct: Soluble analyte in SPR; also called cyBCMA; Cyno BCMA
Assay: SPR, IgG immobilised, cyno BCMA analyte
Please give a number only; it is taken to be in M⁻¹ s⁻¹.

Worked cases, answers included:
binder	reading
COMBO_Rd4_0.6nM_C22 (antibody, V domains shown, IgG; also called COM22) VH: EVQLLESGGGLVQPGGSLRLSCAASGFTFSSYAMNWVRQAPGKGLEWVSAISDSGGSRWYADSVKGRFTISRDNSKNTLYLQMNSLRAEDTAVYYCTRYWPMDIWGQGTLVTVSS VL: EIVLTQSPGTLSLSPGERATLSCRASVRVSSTYLAWYQQKPGQAPRLLMYDASIRATGIPDRFSGSGSGTDFTLTISRLEPEDFAVYYCQQYMKWPLTFGQGTKVEIK	1.34e+06
A02_Rd4_0.6nM_C09 (antibody, V domains shown, IgG) VH: EVQLLESGGGLVQPGGSLRLSCAASGFTFSSYAMNWVRQAPGKGLEWVSAISDSGGSMWYADSVKGRFTISRDNSKNTLYLQMNSLRAEDTAVYYCARYWPMSLWGQGTLVTVSS VL: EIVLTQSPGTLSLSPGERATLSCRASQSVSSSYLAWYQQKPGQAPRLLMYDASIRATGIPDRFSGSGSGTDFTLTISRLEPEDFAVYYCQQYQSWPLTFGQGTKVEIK	2.13e+06

Value of kon reported for the binder A02_Rd4_6nM_C16 (antibody, V domains shown, IgG; also called P5AC16) VH: EVQLLESGGGLVQPGGSLRLSCAASGFTFSSYAMNWVRQAPGKGLEWVSAISDFGGSTYYADSVKGRFTISRDNSKNTLYLQMNSLRAEDTAVYYCARYWPMDIWGQGTLVTVSS VL: EIVLTQSPGTLSLSPGERATLSCRASQSVSDLYLAWYQQKPGQAPRLLMYDASIRATGIPDRFSGSGSGTDFTLTISRLEPEDFAVYYCQQYQTWPLTFGQGTKVEIK is 1.34e+06
